# MEASURED_TARGET: STING receptor (Homo sapiens, UniProt Q86WV6, G230A/H232R/R293Q/R71H)
# Construct: host or cells: THP-1 Dual cells (human monocytic THP-1 with NF-kB-SEAP and IRF-Lucia reporters)
# Sequence (Q86WV6 whole entry R71H/G230A/H232R/R293Q): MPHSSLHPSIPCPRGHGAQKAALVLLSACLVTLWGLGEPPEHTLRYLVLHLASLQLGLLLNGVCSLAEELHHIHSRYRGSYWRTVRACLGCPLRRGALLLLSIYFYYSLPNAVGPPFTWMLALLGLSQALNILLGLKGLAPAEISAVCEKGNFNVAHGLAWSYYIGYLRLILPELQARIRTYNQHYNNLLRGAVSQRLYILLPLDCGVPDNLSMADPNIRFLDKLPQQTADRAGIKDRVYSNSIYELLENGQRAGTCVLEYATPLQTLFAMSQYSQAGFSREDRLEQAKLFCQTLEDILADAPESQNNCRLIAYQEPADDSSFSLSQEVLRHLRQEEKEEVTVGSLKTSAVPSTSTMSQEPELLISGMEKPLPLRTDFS
# MEASUREMENT_NOTES: THP-1 Dual assay, IRF pathway (secreted Lucia luciferase reporter; IRF3 activation)
# Type: cell-based
# CONDITIONS_USED: 5 mg/mL STING agonist; 18 h incubation
Can you tell me Fold induction of IRF3 activation in THP-1 Dual cells for the items I'm about to list?
Please give a number only; it is taken to be in fold.

Please tell me: Fold induction of IRF3 activation in THP-1 Dual cells of Nc1ncnc2c1ccn2[C@@H]1O[C@@H]2COP(=O)(S)O[C@@H]3[C@H](O)[C@@H](CO[P@@](=O)(S)O[C@@H]2[C@H]1O)O[C@H]3n1cnc2c(N)ncnc21 (single isomer, unassigned) [Example 1b] , system STING receptor (Homo sapiens, UniProt Q86WV6, G230A/H232R/R293Q/R71H)?
25.91

Short answer please: Fold induction of IRF3 activation in THP-1 Dual cells, STING receptor (Homo sapiens, UniProt Q86WV6, G230A/H232R/R293Q/R71H), entry Nc1ncnc2c1ccn2[C@@H]1O[C@@H]2CO[P@@](=O)(S)O[C@@H]3[C@@H](O)[C@H](n4cnc5c(N)ncnc54)O[C@@H]3COP(=O)(S)O[C@@H]1[C@@H]2O (stereo partly shown)
5.05

Write down the reported Fold induction of IRF3 activation in THP-1 Dual cells of Nc1nc2c(ncn2[C@@H]2O[C@@H]3COP(=O)(O)O[C@H]4[C@@H](O)[C@H](n5cnc6c(=O)[nH]c(N)nc65)O[C@@H]4COP(=O)(O)O[C@H]3[C@H]2O)c(=O)[nH]1 [3′,5′-c-di-GMP, reference compound] , test system: STING receptor (Homo sapiens, UniProt Q86WV6, G230A/H232R/R293Q/R71H).
2.87

Requested read-out Fold induction of IRF3 activation in THP-1 Dual cells, target or system STING receptor (Homo sapiens, UniProt Q86WV6, G230A/H232R/R293Q/R71H), entry Nc1ncnc2c1ccn2[C@@H]1O[C@@H]2COP(=O)(S)O[C@@H]3[C@H](O)[C@@H](CO[P@@](=O)(S)O[C@@H]2[C@H]1O)O[C@H]3n1cnc2c(N)ncnc21 (single isomer, unassigned) [Example 1a]
112.64

The measured values listed here are drawn from patent US12036231B2.
